Values compiled from paper PMC12416549.

# TARGET OF ASSAY: T1, TNFR1 (Homo sapiens, UniProt P19438)
# T1 chain: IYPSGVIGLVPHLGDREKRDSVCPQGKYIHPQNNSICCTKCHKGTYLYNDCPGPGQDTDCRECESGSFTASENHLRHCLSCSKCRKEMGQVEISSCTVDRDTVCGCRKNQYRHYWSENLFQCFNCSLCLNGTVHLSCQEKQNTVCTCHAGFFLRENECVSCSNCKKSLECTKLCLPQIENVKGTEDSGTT
# ASSAY PROTOCOL: yeast display SC50
ENDPOINT: apparent Kd (screen) (nM)

In the examples that follow, each entry is paired with its recorded apparent Kd (screen).
{"BINDER": "A105P (designed binder) SMEEEVEKAAKEYEKKKKEAIEKHLEKLKAKDKEAAERFLKELEEAAKEYAKDEAKTMSEEEAKRRAKKYKEKVLLSELSEEEQKEIKEAEEKLVRTILKYVEEPAK", "UNIT ANNOTATION": "nM", "apparent Kd (screen)": 0.653}
{"BINDER": "A90F (designed binder) SMEEEVEKAAKEYEKKKKEAIEKHLEKLKAKDKEAAERFLKELEEAAKEYAKDEAKTMSEEEAKRRAKKYKEKVLLSELSEEEQKEIKEFEEKLVRTILKYVEEAAK", "UNIT ANNOTATION": "nM", "apparent Kd (screen)": 0.49}

a: E54G (designed binder) SMEEEVEKAAKEYEKKKKEAIEKHLEKLKAKDKEAAERFLKELEEAAKEYAKDGAKTMSEEEAKRRAKKYKEKVLLSELSEEEQKEIKEAEEKLVRTILKYVEEAAK
b: E26K (designed binder) SMEEEVEKAAKEYEKKKKEAIEKHLKKLKAKDKEAAERFLKELEEAAKEYAKDEAKTMSEEEAKRRAKKYKEKVLLSELSEEEQKEIKEAEEKLVRTILKYVEEAAK
c: H24T (designed binder) SMEEEVEKAAKEYEKKKKEAIEKTLEKLKAKDKEAAERFLKELEEAAKEYAKDEAKTMSEEEAKRRAKKYKEKVLLSELSEEEQKEIKEAEEKLVRTILKYVEEAAK
Rank the items in ascending order with respect to apparent Kd (screen). I would appreciate it if you listed the labels in the requested order.
b, c, a
